System: THRa homodimer (NR concentration 90 nM)
Experiment: PBM binding z-score (relative to random genomic background probes); higher = stronger binding; sequences stand for … in GC…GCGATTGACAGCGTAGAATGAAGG
Hi, to clarify the labels: label 1 covers PBM binding z-score from 0.09 upward, label 0 covers anything below 0.09.

INPUT: In plain terms: is recorded PBM binding z-score at least 0.09 for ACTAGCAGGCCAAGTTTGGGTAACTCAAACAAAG ?
OUTPUT: label 0

INPUT: In plain terms: is recorded PBM binding z-score at least 0.09 for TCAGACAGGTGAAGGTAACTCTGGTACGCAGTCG ?
OUTPUT: label 1

----------
Test system: PPARg homodimer (NR concentration 180 nM)
Assay: PBM binding z-score (relative to random genomic background probes); higher = stronger binding; sequences stand for … in GC…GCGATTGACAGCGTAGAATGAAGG
Kindly state PBM binding z-score for each of the entries shown.
One number for each entry.

[
  {
    "Residue sequence": "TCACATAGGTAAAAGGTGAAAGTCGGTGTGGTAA",
    "Study target": "PPARg homodimer (NR concentration 180 nM)",
    "PBM binding z-score": 1.93
  },
  {
    "Residue sequence": "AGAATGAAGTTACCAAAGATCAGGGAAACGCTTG",
    "Study target": "PPARg homodimer (NR concentration 180 nM)",
    "PBM binding z-score": -0.127
  },
  {
    "Residue sequence": "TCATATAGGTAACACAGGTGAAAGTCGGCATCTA",
    "Study target": "PPARg homodimer (NR concentration 180 nM)",
    "PBM binding z-score": 1.38
  },
  {
    "Residue sequence": "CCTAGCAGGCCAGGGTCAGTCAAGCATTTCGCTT",
    "Study target": "PPARg homodimer (NR concentration 180 nM)",
    "PBM binding z-score": 0.086
  },
  {
    "Residue sequence": "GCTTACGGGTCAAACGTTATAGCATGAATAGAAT",
    "Study target": "PPARg homodimer (NR concentration 180 nM)",
    "PBM binding z-score": 1.25
  }
]

Kindly give each listed record's PBM binding z-score.
1. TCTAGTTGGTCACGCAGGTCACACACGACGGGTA
2. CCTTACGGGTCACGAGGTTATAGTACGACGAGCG
3. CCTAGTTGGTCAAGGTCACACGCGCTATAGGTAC
4. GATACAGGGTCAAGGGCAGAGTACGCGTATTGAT
5. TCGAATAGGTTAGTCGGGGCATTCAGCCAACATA
6. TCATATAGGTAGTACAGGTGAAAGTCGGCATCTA
7. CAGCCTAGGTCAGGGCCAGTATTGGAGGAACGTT

OUTPUT:
1.91
2.24
2.68
2.15
0.278
1.08
0.568

----------
Tested on: RARa homodimer (NR concentration 270 nM)
Test: PBM binding z-score (relative to random genomic background probes); higher = stronger binding; sequences stand for … in GC…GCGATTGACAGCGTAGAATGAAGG
Hi, to clarify the labels: Criterion met covers PBM binding z-score from -0.2 upward, Criterion not met covers anything below -0.2.

Consider the following illustrative entries.
[
  {
    "Residue sequence": "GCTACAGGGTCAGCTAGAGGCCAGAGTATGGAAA",
    "Qualitative label": "Criterion not met"
  },
  {
    "Residue sequence": "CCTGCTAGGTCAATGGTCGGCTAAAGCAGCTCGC",
    "Qualitative label": "Criterion met"
  },
  {
    "Residue sequence": "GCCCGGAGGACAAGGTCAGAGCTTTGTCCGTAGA",
    "Qualitative label": "Criterion not met"
  },
  {
    "Residue sequence": "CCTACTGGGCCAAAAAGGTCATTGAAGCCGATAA",
    "Qualitative label": "Criterion met"
  },
  {
    "Residue sequence": "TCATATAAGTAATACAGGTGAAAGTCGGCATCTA",
    "Qualitative label": "Criterion met"
  }
]

Next item in the queue.
INPUT: In plain terms: is recorded PBM binding z-score at least -0.2 for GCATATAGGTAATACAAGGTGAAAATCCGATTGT ?
OUTPUT: Criterion met
